- STUDY_SYSTEM: human AspH (His6-AspH315–758) (Homo sapiens, UniProt Q12797)
- Construct: N-Terminally His6-tagged human AspH315–758 (His6-AspH315–758) was produced in Escherichia coli BL21 (DE3) cells; made in house; host or cells: Escherichia coli BL21 (DE3), pET-28a(+) vector
- Sequence (Q12797 315-758): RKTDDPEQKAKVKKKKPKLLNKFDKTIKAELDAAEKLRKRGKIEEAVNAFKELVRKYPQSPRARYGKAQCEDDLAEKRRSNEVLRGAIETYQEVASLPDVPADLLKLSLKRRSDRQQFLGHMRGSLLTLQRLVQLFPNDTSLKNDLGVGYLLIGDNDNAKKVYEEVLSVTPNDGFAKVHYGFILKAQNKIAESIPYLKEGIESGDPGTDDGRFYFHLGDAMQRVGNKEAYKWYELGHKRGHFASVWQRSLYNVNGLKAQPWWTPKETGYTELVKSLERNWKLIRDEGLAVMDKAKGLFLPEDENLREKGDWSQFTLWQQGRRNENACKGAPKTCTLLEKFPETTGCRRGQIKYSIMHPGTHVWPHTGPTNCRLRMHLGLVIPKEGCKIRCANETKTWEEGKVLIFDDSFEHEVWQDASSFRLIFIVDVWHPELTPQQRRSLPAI
- EXPERIMENTAL_PROTOCOL: SPE-MS AspH inhibition assay (hFX-CP101-119 substrate hydroxylation)
- Type: biochemical
- APPLIED_CONDITIONS: AspH-inhibitor screening, 384-well Plate 1
ASSAY_METRIC: Plate 1 (% inhibition) (%)
Kindly answer with a numeric value in %, unit omitted.

molecule="CC(=O)c1c(C)c2cnc(Nc3ccc(N4CCNCC4)cn3)nc2n(C2CCCC2)c1=O [Palbociclib]" quantity_unit=% reported_measurement=13.54
molecule="Cl.NC(=O)c1cccc2cn(-c3ccc([C@@H]4CCCNC4)cc3)nc12 [MK-4827, HCl salt]" quantity_unit=% reported_measurement=7.39

For the molecule Clc1ccc(C(c2ccccc2Cl)C(Cl)Cl)cc1 (stereo not drawn) , give its reported Plate 1 (% inhibition). 14.44

For the molecule `COc1cc2ncnc(Nc3ccc(F)c(Cl)c3)c2cc1OCCCN1CCOCC1` , give its reported Plate 1 (% inhibition). -37.34

For the molecule `CNC(=O)c1cccc(-c2ccc3c(N4CCOC[C@@H]4C)nc(N4CCOC[C@@H]4C)nc3n2)c1` , give its reported Plate 1 (% inhibition). 7.73

For the molecule `CCc1cncnc1N1CCN(Cc2nc3ccc(C(F)(F)F)cc3[nH]2)CC1` , give its reported Plate 1 (% inhibition). -5.43

For the molecule COc1cc([C@@H]2c3cc4c(cc3[C@@H](O[C@@H]3O[C@@H]5CO[C@@H](C)O[C@H]5[C@H](O)[C@H]3O)[C@H]3COC(=O)[C@H]23)OCO4)cc(OC)c1O [Etoposide] , give its reported Plate 1 (% inhibition). -0.43

For the molecule `O=C(c1ccc(OCCN2CCCCC2)cc1)c1c(-c2ccc(O)cc2)sc2cc(O)ccc12` , give its reported Plate 1 (% inhibition). 17.35

For the molecule `NC1(c2ccc(-c3nc4ccn5c(=O)[nH]nc5c4cc3-c3ccccc3)cc2)CCC1` , give its reported Plate 1 (% inhibition). -21.29

For the molecule Cc1cc(C(C)Nc2ccccc2)c2nc(N3CCOCC3)cc(=O)n2c1 (stereo not drawn) , give its reported Plate 1 (% inhibition). -1.55

For the molecule `CC(C)(C)c1cc(NC(=O)Nc2ccc(-c3cn4c(n3)sc3cc(OCCN5CCOCC5)ccc34)cc2)no1` , give its reported Plate 1 (% inhibition). -19.26

For the molecule `Nc1nc2[nH]cc(CCc3ccc(C(=O)N[C@@H](CCC(=O)O)C(=O)O)cc3)c2c(=O)[nH]1` , give its reported Plate 1 (% inhibition). 17.80

For the molecule CC(C)C(=O)Nc1ccc([N+](=O)[O-])c(C(F)(F)F)c1 [Flutamide] , give its reported Plate 1 (% inhibition). 0.33

For the molecule `COc1cc2c(Oc3ccc(NC(=O)C4(C(=O)Nc5ccc(F)cc5)CC4)cc3F)ccnc2cc1OCCCN1CCOCC1` , give its reported Plate 1 (% inhibition). -64.58

For the molecule `COc1c(C)cnc(Cn2cnc3c(Cl)nc(N)nc32)c1C` , give its reported Plate 1 (% inhibition). 5.65

----------
- STUDY_SYSTEM: human AspH (His6-AspH315–758) (Homo sapiens)
- Construct: N-Terminally His6-tagged human AspH315–758 (His6-AspH315–758) was produced in Escherichia coli BL21 (DE3) cells; made in house; host or cells: Escherichia coli BL21 (DE3), pET-28a(+) vector
- EXPERIMENTAL_PROTOCOL: SPE-MS AspH inhibition assay (hFX-CP101-119 substrate hydroxylation)
- Assay type: biochemical
- APPLIED_CONDITIONS: AspH-inhibitor screening, Plate 1-duplicate, substrate conversion
Reported values of Plate 1-duplicate (% conversion) for individual entries
Kindly answer with a numeric value in %, unit omitted.

compound=O=c1[nH]cc(F)c(=O)[nH]1 reported_measurement=49.38
compound=CC[C@@]1(O)C(=O)OCc2c1cc1n(c2=O)Cc2cc3ccccc3nc2-1 reported_measurement=49.89
compound="CC[C@]1(O)C[C@H]2CN(CCc3c([nH]c4ccccc34)[C@@](C(=O)OC)(c3cc4c(cc3OC)N(C=O)[C@H]3[C@@](O)(C(=O)OC)[C@H](OC(C)=O)[C@]5(CC)C=CCN6CC[C@]43[C@@H]65)C2)C1.O=S(=O)(O)O [Vincristine Sulfate (Oncovin)]" reported_measurement=50.11
compound=O=C(Nc1c[nH]nc1-c1nc2ccc(CN3CCOCC3)cc2[nH]1)NC1CC1 reported_measurement=50.82

For the compound O=P1(NCCCl)OCCCN1CCCl (centres unmarked) [Ifosfamide] , give its reported Plate 1-duplicate (% conversion). 49.81

For the compound `Nc1nc(Cl)nc2c1ncn2[C@@H]1O[C@H](CO)[C@@H](O)[C@@H]1F` , give its reported Plate 1-duplicate (% conversion). 50.22

For the compound `CCc1c2c(nc3ccc(OC(=O)N4CCC(N5CCCCC5)CC4)cc13)-c1cc3c(c(=O)n1C2)COC(=O)[C@]3(O)CC` , give its reported Plate 1-duplicate (% conversion). 53.79

For the compound C#CCC(Cc1cnc2nc(N)nc(N)c2n1)c1ccc(C(=O)N[C@@H](CCC(=O)O)C(=O)O)cc1 (some centres unmarked) [Pralatrexate] , give its reported Plate 1-duplicate (% conversion). 45.03

For the compound `Cc1ccc(C(=O)N(CCCN)[C@@H](c2oc3cc(Cl)ccc3c(=O)c2Cc2ccccc2)C(C)C)cc1` , give its reported Plate 1-duplicate (% conversion). 67.08

For the compound CC(C)C[C@H](NC(=O)[C@@H](COC(C)(C)C)NC(=O)[C@H](Cc1ccc(O)cc1)NC(=O)[C@H](CO)NC(=O)[C@H](Cc1c[nH]c2ccccc12)NC(=O)[C@H](Cc1cnc[nH]1)NC(=O)[C@@H]1CCC(=O)N1)C(=O)N[C@@H](CCCNC(=N)N)C(=O)N1CCC[C@H]1C(=O)NNC(N)=O [Goserelin acetate] , give its reported Plate 1-duplicate (% conversion). 59.63

For the compound `CN[C@@H]1C[C@H]2O[C@@](C)([C@@H]1OC)n1c3ccccc3c3c4c(c5c6ccccc6n2c5c31)C(=O)N[C@H]4O` , give its reported Plate 1-duplicate (% conversion). 52.44

For the compound O=C1CN2Cc3c(ccc(Cl)c3Cl)N=C2N1 [Anagrelide] , give its reported Plate 1-duplicate (% conversion). 51.91

For the compound `Cc1c(CN2CCN(C(=O)[C@H](C)O)CC2)sc2c(N3CCOCC3)nc(-c3cnc(N)nc3)nc12` , give its reported Plate 1-duplicate (% conversion). 51.28

For the compound `N#CCNC(=O)c1ccc(-c2ccnc(Nc3ccc(N4CCOCC4)cc3)n2)cc1` , give its reported Plate 1-duplicate (% conversion). 49.64

----------
- STUDY_SYSTEM: human AspH (His6-AspH315–758) (Homo sapiens)
- Construct: N-Terminally His6-tagged human AspH315–758 (His6-AspH315–758) was produced in Escherichia coli BL21 (DE3) cells; made in house; host or cells: Escherichia coli BL21 (DE3), pET-28a(+) vector
- EXPERIMENTAL_PROTOCOL: SPE-MS AspH inhibition assay (hFX-CP101-119 substrate hydroxylation)
- Assay type: biochemical
- APPLIED_CONDITIONS: AspH-inhibitor screening, Plate 1-duplicate, substrate conversion
Structures can show the parent of a compound that is named as a salt.
Reported values of Plate 1-duplicate (% conversion) for individual entries
Kindly answer with a numeric value in %, unit omitted.

molecule="C[C@@H](C(=O)O)c1ccc(-c2ccccc2)c(F)c1 [(R)-Flurbiprofen (Tarenflurbil)]" reported_measurement=44.01
molecule="CNNCc1ccc(C(=O)NC(C)C)cc1 [Procarbazine hydrochloride]" reported_measurement=49.30
molecule="CC(=O)O[C@]1(C(C)=O)CC[C@H]2[C@@H]3C=C(C)C4=CC(=O)CC[C@]4(C)[C@H]3CC[C@@]21C [Megestrol acetate]" reported_measurement=48.44

For the molecule `CN1CCN(c2ccc3nc(-c4c(N)c5c(F)cccc5[nH]c4=O)[nH]c3c2)CC1` , give its reported Plate 1-duplicate (% conversion). 55.49

For the molecule `COc1c(C)cnc(Cn2cnc3c(Cl)nc(N)nc32)c1C` , give its reported Plate 1-duplicate (% conversion). 49.56

For the molecule CC[C@H](Nc1ncnc2[nH]cnc12)c1nc2cccc(F)c2c(=O)n1-c1ccccc1 [CAL-101] , give its reported Plate 1-duplicate (% conversion). 50.52

----------
- STUDY_SYSTEM: human AspH (His6-AspH315–758) (Homo sapiens, UniProt Q12797)
- Construct: N-Terminally His6-tagged human AspH315–758 (His6-AspH315–758) was produced in Escherichia coli BL21 (DE3) cells; made in house; host or cells: Escherichia coli BL21 (DE3), pET-28a(+) vector
- EXPERIMENTAL_PROTOCOL: SPE-MS AspH inhibition assay (hFX-CP101-119 substrate hydroxylation)
- Format: biochemical
- APPLIED_CONDITIONS: AspH-inhibitor screening, Plate 1-duplicate
Reported values of Plate 1-duplicate (% inhibition) for individual entries
Kindly answer with a numeric value in %, unit omitted.

Previously resolved entries follow.
mol_smiles=O=NN(CCCl)C(=O)NC1CCCCC1 study_system="human AspH (His6-AspH315–758) (Homo sapiens, UniProt Q12797)" reported_measurement=8.61
mol_smiles=CN[C@@H]1C[C@H]2O[C@@](C)([C@@H]1OC)n1c3ccccc3c3c4c(c5c6ccccc6n2c5c31)C(=O)N[C@H]4O study_system="human AspH (His6-AspH315–758) (Homo sapiens, UniProt Q12797)" reported_measurement=-0.80

Field: next compound
For the compound `COc1cccc2c1C(=O)c1c(O)c3c(c(O)c1C2=O)C[C@@](O)(C(=O)CO)C[C@@H]3O[C@H]1C[C@H](N)[C@H](O)[C@H](C)O1` , give its reported Plate 1-duplicate (% inhibition). -1.25

Values compiled from paper PMC7588595.
